- assay-protocol: protein stability index of a GFP-peptide fusion (GPS, HEK-293T) (PSI 1-6); higher = more stable;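 also: 24-mer peptide tiles fused after GFP, lentivirally expressed, FACS-sorted into six equal bins by GFP/DsRed ratio, decoded by Illumina sequencing, PSI is the read-weighted mean bin number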
- settings: treatment: DMSO; c terminus: a fixed tail appended
metric: protein stability index

>>> df
                       monomer_sequence                   metric  recorded_number
 0     INKEELEGNSMRCGRKLAKDGEYC [GMCL1]  protein stability index             4.04
 1    IYDNAVQGLRRHEILQWVLQTDSQ [LRRC59]  protein stability index             2.56
 2    TLALILQIPTQNTQARQVMEREFN [PPFIA4]  protein stability index             2.32
 3    RLQGLEADCVRGPDGVCLSGGRGP [PBXIP1]  protein stability index              4.4
 4       EQQRIIAILLDAHHKTYDPTYSDF [VDR]  protein stability index             2.48
 5  VILNYPSPWDQEERPAQRDCSFPG [TRAF3IP2]  protein stability index             2.79
 6    FMRTDPVCQKLLLDAMNYHLMPFR [KLHL14]  protein stability index             2.25
 7      LHVNPKKQTIGNSCKACGYRGMLD [EIF5]  protein stability index             2.35
 8     MCPPVSMRYEEEGMSYLYASWMYQ [TEX19]  protein stability index              2.3
 9    LRAVEQAMGHSQDRLTTFQENQAR [LRRC45]  protein stability index             4.48
10    VPQDPDLEEEEEEEDLVLTCEDDE [ZBTB22]  protein stability index             5.59
11     SSTSPLMEGTPTIKSKKKLLQIID [VPS39]  protein stability index             3.76
12    LVGAQAPATEEQEAASSSSTLVEV [MAGEA3]  protein stability index             5.43
